- Measured target: T1, corticotropin releasing factor 2 receptor
- T1 sequence (Q13324 whole entry, species assumed, looked up): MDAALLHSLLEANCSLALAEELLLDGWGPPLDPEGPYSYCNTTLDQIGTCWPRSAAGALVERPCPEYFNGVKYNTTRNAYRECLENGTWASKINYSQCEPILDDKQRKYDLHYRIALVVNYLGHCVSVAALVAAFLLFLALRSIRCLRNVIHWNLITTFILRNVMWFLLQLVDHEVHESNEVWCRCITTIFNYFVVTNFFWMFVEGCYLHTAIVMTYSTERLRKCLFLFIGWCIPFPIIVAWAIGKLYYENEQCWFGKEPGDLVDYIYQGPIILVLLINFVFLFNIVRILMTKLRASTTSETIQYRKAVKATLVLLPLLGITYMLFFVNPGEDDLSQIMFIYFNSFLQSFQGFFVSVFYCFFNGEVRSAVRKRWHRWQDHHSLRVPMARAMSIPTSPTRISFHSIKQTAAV
- Experiment description: cell-based or functional assay
Ends that are not written are not given here.
Record rule met whenever CRF2R EC50 is at 20 nM or higher; record rule not met when lower.

ZGPPISIDLPLYLLRKMIEIEKQEKEKQQATTNARLLDTV (C-terminal amide) [SEQ ID NO 242]; rule met
NDDPPISIDLPLLLLRNMIEMARIENEREQAGLNAKYLAEV-NH2 [SEQ ID NO 268]; rule met
ZGPPISIDLPFFLLRKMIEIEKQEKEKQQAANNALLLDTI (C-terminal amide) [SEQ ID NO 318]; rule not met
ZGPPISIDLPLWLLRKMIEIEKQEKEKQQAANNRLLLDTI (C-terminal amide) [SEQ ID NO 218]; rule not met
DNPSLSIDVPLYLLRTLLELEKTQSQRERAEQNARIFARV-NH2 [SEQ ID NO 387]; rule not met

Here is another binder to look at.
Reported CRF2R EC50 at or above 20 nM? ZGPPISIDVPIGLLRKMIEIEKQEKEKQQAANNRLLLDTI (C-terminal amide) [SEQ ID NO 254]
rule met
